Source listed as patent US4548818A.

- Test system: Guinea-pig trachea
- ASSAY_EXPLANATION: Isolated guinea-pig trachea (relaxation of carbacholine-contracted tracheal muscle)
- CONDITION_SET: Table II; molar potency ratio from EC50 values (50% maximum response); theophylline = 1 by definition; >1 more potent than theophylline; carbacholine 0.1 μg/ml
Listed compounds paired with reported Guinea-Pig trachea Potency rations of theophylline
Lab note: jot the number down without any unit.

* Cc1nc2c([nH]1)c(=O)[nH]c(=O)n2CC(C)(C)C | 1.8
* CC(C)(C)Cn1c(=O)[nH]c(=O)c2[nH]cnc21 | 3
* O=c1[nH]c(=O)n(C2CCC2)c2nc[nH]c12 | 3.8
* O=c1[nH]c(=O)n(CC2CCCCC2)c2nc[nH]c12 | 5

INPUT: Entry under review: O=c1[nH]c(=O)n(C2CC2)c2nc[nH]c12 . Reported Guinea-Pig trachea Potency rations of theophylline?
OUTPUT: 0.5

INPUT: Data request, read-out Guinea-Pig trachea Potency rations of theophylline, for O=c1[nH]c(=O)n(C2CCCC2)c2nc[nH]c12
OUTPUT: 5.65

INPUT: Request the reported Guinea-Pig trachea Potency rations of theophylline associated with Cn1c(=O)c2c(ncn2C)n(C)c1=O [Caffeine, caffeine, reference compound]
OUTPUT: 1

INPUT: // Guinea-Pig trachea Potency rations of theophylline lookup, key: Cc1nc2c([nH]1)c(=O)[nH]c(=O)n2CC1CCCCC1
OUTPUT: 4

INPUT: Give its Guinea-Pig trachea Potency rations of theophylline value. Item: Cc1nc2c([nH]1)c(=O)[nH]c(=O)n2C1CCCC1
OUTPUT: 5.85
